# study.system: T1, mouse MuSK (mouse, UniProt Q61006 22-494, limits assumed)
# T1 construct: Coated on ELISA plates or on the Biacore chip; also called full length mouse MuSK; mouse MuSK (in house produced in HEK293 cells)
# T1 sequence (looked up): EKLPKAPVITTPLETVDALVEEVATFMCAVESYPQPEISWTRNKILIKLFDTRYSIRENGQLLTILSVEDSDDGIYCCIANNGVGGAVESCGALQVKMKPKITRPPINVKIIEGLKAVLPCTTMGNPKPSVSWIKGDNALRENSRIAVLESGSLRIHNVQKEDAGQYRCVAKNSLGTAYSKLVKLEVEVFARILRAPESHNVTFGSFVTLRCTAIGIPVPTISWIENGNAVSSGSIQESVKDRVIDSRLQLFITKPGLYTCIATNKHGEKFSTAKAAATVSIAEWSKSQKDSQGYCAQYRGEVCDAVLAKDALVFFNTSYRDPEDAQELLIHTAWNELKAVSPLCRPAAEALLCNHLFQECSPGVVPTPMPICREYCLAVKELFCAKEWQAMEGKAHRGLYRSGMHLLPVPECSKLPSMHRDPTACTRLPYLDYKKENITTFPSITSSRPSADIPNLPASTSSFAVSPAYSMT
# assay.summary: Biacore, MuSK on chip (200RU), 66.7 nM mAb, dissociation pH 7.4
measurement.type: kon (M⁻¹ s⁻¹)

binder="3B2 (antibody, V domains shown, human IgG1 with the LALA mutations (L234A, L235A); produced in HEK293 cells; also called 3B2 mAb; parental 3B2 Ab) VH: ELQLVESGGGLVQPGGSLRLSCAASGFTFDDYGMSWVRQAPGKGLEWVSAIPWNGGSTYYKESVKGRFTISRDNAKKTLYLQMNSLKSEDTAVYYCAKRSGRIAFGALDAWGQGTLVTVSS VL: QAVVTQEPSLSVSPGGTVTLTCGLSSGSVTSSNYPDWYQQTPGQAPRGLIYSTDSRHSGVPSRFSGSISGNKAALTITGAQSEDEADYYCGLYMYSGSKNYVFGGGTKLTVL" measurement_type=kon reported_value=1.13e+06
